# Tested on: PC-3 prostate
# PROCEDURE_TEXT: NCI tumour cell line growth inhibition, 48 h
Form field: TGI (one value per entry).

Worked set:
• CCCCC(=C=C1CCCCC1O)C1CCCN1C(=O)OC(C)(C)C (stereo not given) = 29.6 µM
• COc1cc(C2S/C(=C/c3ccccc3)C(=O)N2c2ccc(Cl)cc2)cc(OC)c1OC (stereo not given) = > 84.4 µM
• C=CC1(CCC(Br)C(C)(C)Cl)CO1 (stereo not given) = > 10 µM
• C/C=C\C(CC(=O)O)CC(=O)NCCC1CN(S(=O)(=O)C(F)(F)F)c2ccccc21 (stereo not given) = > 100 µM

Input line: Look up PC-3 prostate data: TGI of CCOC(=O)Cc1csc(NC(=O)C(OC(=O)c2ccc(N)cc2)c2ccccc2)n1 (stereo not given) , then report it.
Output line: > 100 µM
